- measurement_target: ovine COX-1 (Ovis aries)
- Sequence (P05979 25-600): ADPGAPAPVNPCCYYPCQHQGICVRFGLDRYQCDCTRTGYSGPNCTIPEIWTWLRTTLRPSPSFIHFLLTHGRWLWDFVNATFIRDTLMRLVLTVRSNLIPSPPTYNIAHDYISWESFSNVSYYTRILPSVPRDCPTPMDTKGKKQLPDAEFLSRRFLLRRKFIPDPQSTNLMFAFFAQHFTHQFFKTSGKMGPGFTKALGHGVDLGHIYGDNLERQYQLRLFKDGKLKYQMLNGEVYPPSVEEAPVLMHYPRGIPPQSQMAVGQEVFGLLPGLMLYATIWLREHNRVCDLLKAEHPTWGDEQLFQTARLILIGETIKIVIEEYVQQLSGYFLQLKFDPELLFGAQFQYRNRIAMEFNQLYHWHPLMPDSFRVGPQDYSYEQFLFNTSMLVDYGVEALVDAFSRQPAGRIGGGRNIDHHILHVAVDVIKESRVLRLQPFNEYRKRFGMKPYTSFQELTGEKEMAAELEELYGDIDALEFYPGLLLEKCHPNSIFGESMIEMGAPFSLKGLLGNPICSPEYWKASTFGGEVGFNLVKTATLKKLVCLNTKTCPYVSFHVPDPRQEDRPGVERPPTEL
- measurement_notes: COX-1 inhibition, enzyme immune assay (EIA) kit
- test_conditions: conc 1 (μM)
Below, each entry is listed with its recorded COX1 %inh.
measurement_name: COX1 %inh (%)

> print(dat)
                                 smiles.data  unit  recorded.measurement
 1   CCNC(=S)N/N=C/c1cn(S(C)(=O)=O)c2ccccc12     %                  8.96
 2  CS(=O)(=O)n1cc(/C=N/NC(=S)Nc2ccccc2)c2ccccc21     %                  24.7
 3     CS(=O)(=O)n1cc(/C=N/NC(N)=O)c2ccccc21     %                  12.4
 4     CS(=O)(=O)n1cc(/C=N/NC(N)=S)c2ccccc21     %                  18.6
 5  COc1ccc(NC(=S)N/N=C/c2cn(S(C)(=O)=O)c3ccccc23)cc1     %                  14.4
 6  COc1ccc(N2CC(=O)S/C2=N\N=C\c2cn(S(C)(=O)=O)c3ccccc23)cc1     %                  13.1
 7  Cc1ccc(N2C(=O)CSC2=NN=Cc2cn(S(C)(=O)=O)c3ccccc23)cc1     %                  27.6
 8  Cc1ccc(NC(=S)N/N=C/c2cn(S(C)(=O)=O)c3ccccc23)cc1     %                  13.4
 9  CCN1CC(=O)S/C1=N\N=C\c1cn(S(C)(=O)=O)c2ccccc12     %                  15.2
10  CS(=O)(=O)n1cc(/C=N/N=C2/NCC(=O)S2)c2ccccc21     %                  32.4
11  CS(=O)(=O)n1cc(/C=N/N=C2\SC(=O)CN2c2ccccc2)c2ccccc21     %                  10.5
12  CS(=O)(=O)n1cc(/C=N/NC(=O)Nc2ccccc2)c2ccccc21     %                  11.6

====

- measurement_target: ovine COX-1 (Ovis aries)
- measurement_notes: COX-1 inhibition, enzyme immune assay (EIA) kit
- test_conditions: read-out: IC50 COX-1
Reported IC50 values are given for each entry in this list.
measurement_name: IC50 (µM)

> print(dat)
                                smiles.data  recorded.measurement
1  CS(=O)(=O)n1cc(/C=N/N=C2\SC(=O)CN2c2ccccc2)c2ccccc21                  29.2
2  COc1ccc(N2CC(=O)S/C2=N\N=C\c2cn(S(C)(=O)=O)c3ccccc23)cc1                  47.5
3  CCN1CC(=O)S/C1=N\N=C\c1cn(S(C)(=O)=O)c2ccccc12                  22.2
4  CS(=O)(=O)n1cc(/C=N/N=C2/NCC(=O)S2)c2ccccc21                  3.95

====

- measurement_target: 5-LOX enzyme (Homo sapiens, UniProt P09917)
- Construct: purchased Cayman Chemical K980-100
- measurement_notes: 5-LOX inhibition, Human Lipoxygenase Inhibitor Screening Assay (EIA) kit
- Assay type: biochemical
- test_conditions: conc 10 (μM)
- Method: The ability of the test compounds to inhibit the 5-LOX enzyme (IC50 value, μM) was detected using the Cayman Human Lipoxygenase Inhibitor Screening Assay (EIA) kit (catalog no. K980-100, Cayman Chemical). The IC50 values of test compounds were measured in µM according to the manufacturer’s instructions and reported method.
List of 5-LOX %inh values.
measurement_name: 5-LOX %inh (%)

> print(dat)
                                   compound  recorded.measurement
1  CS(=O)(=O)n1cc(/C=N/NC(N)=O)c2ccccc21 [Compound 3a]                  18.6
2  CS(=O)(=O)n1cc(/C=N/NC(=O)Nc2ccccc2)c2ccccc21 [Compound 3b]                  36.1
3  Cc1ccc(N2C(=O)CSC2=NN=Cc2cn(S(C)(=O)=O)c3ccccc23)cc1 [Compound 5d]                  70.6
4  CS(=O)(=O)n1cc(/C=N/NC(=S)Nc2ccccc2)c2ccccc21 [Compound 4c]                  57.1
5  CCN1CC(=O)S/C1=N\N=C\c1cn(S(C)(=O)=O)c2ccccc12 [Compound 5b]                  15.1

====

- measurement_target: 5-LOX enzyme (Homo sapiens)
- Construct: purchased Cayman Chemical K980-100
- Sequence (P09917 1-674): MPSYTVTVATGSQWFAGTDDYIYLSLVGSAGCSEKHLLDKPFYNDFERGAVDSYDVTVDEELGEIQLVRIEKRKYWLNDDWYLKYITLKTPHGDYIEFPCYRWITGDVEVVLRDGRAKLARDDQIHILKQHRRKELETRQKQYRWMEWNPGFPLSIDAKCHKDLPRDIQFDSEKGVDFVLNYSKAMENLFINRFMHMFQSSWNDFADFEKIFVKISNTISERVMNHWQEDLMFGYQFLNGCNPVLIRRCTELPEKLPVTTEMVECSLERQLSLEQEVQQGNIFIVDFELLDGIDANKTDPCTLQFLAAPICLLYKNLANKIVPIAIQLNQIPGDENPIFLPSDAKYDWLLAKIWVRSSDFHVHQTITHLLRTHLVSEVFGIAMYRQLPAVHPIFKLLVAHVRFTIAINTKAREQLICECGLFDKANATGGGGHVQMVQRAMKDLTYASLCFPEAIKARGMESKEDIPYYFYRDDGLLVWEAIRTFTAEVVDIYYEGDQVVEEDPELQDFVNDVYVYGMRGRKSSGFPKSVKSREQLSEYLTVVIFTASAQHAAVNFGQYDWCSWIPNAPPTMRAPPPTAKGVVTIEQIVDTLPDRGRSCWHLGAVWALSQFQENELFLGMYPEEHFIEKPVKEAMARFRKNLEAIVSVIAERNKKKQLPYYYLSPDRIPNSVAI
- measurement_notes: 5-LOX inhibition, Human Lipoxygenase Inhibitor Screening Assay (EIA) kit
- Assay type: biochemical
pIC50: −log10 of the molar value.
Think of 5 as a floor: if pIC50 stands on it or above, it is met; beneath it, not met.

> print(dat)
                                 smiles.data           measurement.target  discrete.label
 1     CS(=O)(=O)n1cc(/C=N/NC(N)=S)c2ccccc21  5-LOX enzyme (Homo sapiens)             met
 2  CS(=O)(=O)n1cc(/C=N/N=C2\SC(=O)CN2c2ccccc2)c2ccccc21  5-LOX enzyme (Homo sapiens)         not met
 3  COc1ccc(NC(=S)N/N=C/c2cn(S(C)(=O)=O)c3ccccc23)cc1  5-LOX enzyme (Homo sapiens)             met
 4   CCNC(=S)N/N=C/c1cn(S(C)(=O)=O)c2ccccc12  5-LOX enzyme (Homo sapiens)         not met
 5  COc1ccc(N2CC(=O)S/C2=N\N=C\c2cn(S(C)(=O)=O)c3ccccc23)cc1  5-LOX enzyme (Homo sapiens)             met
 6  CCN1CC(=O)S/C1=N\N=C\c1cn(S(C)(=O)=O)c2ccccc12  5-LOX enzyme (Homo sapiens)         not met
 7  CS(=O)(=O)n1cc(/C=N/NC(=S)Nc2ccccc2)c2ccccc21  5-LOX enzyme (Homo sapiens)             met
 8  Cc1ccc(N2C(=O)CSC2=NN=Cc2cn(S(C)(=O)=O)c3ccccc23)cc1  5-LOX enzyme (Homo sapiens)             met
 9  Cc1ccc(NC(=S)N/N=C/c2cn(S(C)(=O)=O)c3ccccc23)cc1  5-LOX enzyme (Homo sapiens)         not met
10  CS(=O)(=O)n1cc(/C=N/NC(=O)Nc2ccccc2)c2ccccc21  5-LOX enzyme (Homo sapiens)         not met
11     CS(=O)(=O)n1cc(/C=N/NC(N)=O)c2ccccc21  5-LOX enzyme (Homo sapiens)         not met

====

- measurement_target: 5-LOX enzyme (Homo sapiens)
- Construct: purchased Cayman Chemical K980-100
- Sequence (P09917 1-674): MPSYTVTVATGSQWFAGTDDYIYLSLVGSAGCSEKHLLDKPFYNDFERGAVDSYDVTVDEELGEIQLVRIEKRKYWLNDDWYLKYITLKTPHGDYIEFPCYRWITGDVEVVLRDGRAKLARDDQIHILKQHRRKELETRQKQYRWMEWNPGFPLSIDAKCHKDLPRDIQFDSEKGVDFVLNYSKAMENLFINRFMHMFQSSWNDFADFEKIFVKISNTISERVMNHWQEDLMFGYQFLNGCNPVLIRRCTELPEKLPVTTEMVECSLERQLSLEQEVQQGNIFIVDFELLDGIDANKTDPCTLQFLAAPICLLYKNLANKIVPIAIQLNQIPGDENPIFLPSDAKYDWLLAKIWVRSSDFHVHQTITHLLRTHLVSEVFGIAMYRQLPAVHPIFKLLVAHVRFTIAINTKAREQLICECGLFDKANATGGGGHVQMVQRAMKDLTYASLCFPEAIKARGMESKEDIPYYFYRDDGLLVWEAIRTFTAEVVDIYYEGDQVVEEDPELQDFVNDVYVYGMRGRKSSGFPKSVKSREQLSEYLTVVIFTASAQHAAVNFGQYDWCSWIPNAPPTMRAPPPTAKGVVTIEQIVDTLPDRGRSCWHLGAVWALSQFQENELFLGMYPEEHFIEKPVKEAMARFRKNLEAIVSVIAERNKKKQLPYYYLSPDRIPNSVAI
- measurement_notes: 5-LOX inhibition, Human Lipoxygenase Inhibitor Screening Assay (EIA) kit
- Format: biochemical
- test_conditions: conc 0.1 (μM)
Measured 5-LOX %inh of individual entries
measurement_name: 5-LOX %inh (%)

> print(dat)
                                    molecule  recorded.measurement
 1  Cc1ccc(N2C(=O)CSC2=NN=Cc2cn(S(C)(=O)=O)c3ccccc23)cc1 [Compound 5d]                  30.3
 2  COc1ccc(N2CC(=O)S/C2=N\N=C\c2cn(S(C)(=O)=O)c3ccccc23)cc1 [Compound 5e]                  11.6
 3  CS(=O)(=O)n1cc(/C=N/N=C2/NCC(=O)S2)c2ccccc21 [Compound 5a]                  7.21
 4  CS(=O)(=O)n1cc(/C=N/NC(=O)Nc2ccccc2)c2ccccc21 [Compound 3b]                  5.27
 5  CS(=O)(=O)n1cc(/C=N/NC(=S)Nc2ccccc2)c2ccccc21 [Compound 4c]                  12.1
 6  CCNC(=S)N/N=C/c1cn(S(C)(=O)=O)c2ccccc12 [Compound 4b]                  4.17
 7  CCN1CC(=O)S/C1=N\N=C\c1cn(S(C)(=O)=O)c2ccccc12 [Compound 5b]                  1.82
 8  COc1ccc(NC(=S)N/N=C/c2cn(S(C)(=O)=O)c3ccccc23)cc1 [Compound 4e]                  17.9
 9  CS(=O)(=O)n1cc(/C=N/NC(N)=O)c2ccccc21 [Compound 3a]                  2.63
10  Cc1ccc(NC(=S)N/N=C/c2cn(S(C)(=O)=O)c3ccccc23)cc1 [Compound 4d]                  4.88
11  CS(=O)(=O)n1cc(/C=N/NC(N)=S)c2ccccc21 [Compound 4a]                  11.4
12  CS(=O)(=O)n1cc(/C=N/N=C2\SC(=O)CN2c2ccccc2)c2ccccc21 [Compound 5c]                  2.32
